Listed here: items and their measured pIC50.
tested on: rat skeletal muscle cell line, L6; test: cells; assay type: cell-based; details: Rattus norvegicus; Table 1; read-out: IC50 Toxicity (L6)
pIC50: −log10 of the molar value.

| compoundStructureString | resultModifier | pIC50 |
| --- | --- | --- |
| CN(C)c1ccc(/C=C2\Oc3ccccc3C2=O)cc1 | = | 3.84 |
| O=C1/C(=C/c2cccs2)Oc2cc(O)ccc21 | < | 4.00 |
| CCCCc1ccc(/C=C2\Oc3ccccc3C2=O)cc1 | = | 4.46 |
| O=C1/C(=C/c2ccc(Cl)cc2)Oc2ccccc21 | < | 4.00 |
| O=C1/C(=C/c2cc(Br)cc(Br)c2O)Oc2ccccc21 | < | 4.00 |

###

test system: Trypanosoma cruzi Tulahuen cells expressing beta-galactosidase; assay: T. cruzi intracellular assay (beta-galactosidase, L6 host cells); settings: Table 2; L6 IC50 / T. cruzi IC50 (intracellular assay)

| compound | Selectivity L6/Tc |
| --- | --- |
| O=C1/C(=C/c2cccc(I)c2)Oc2ccccc21 | >13.26 |
| O=C1/C(=C/c2ccsc2)Oc2ccccc21 | >11.09 |
| O=C1/C(=C/c2ccc(I)cc2)Oc2ccccc21 | >9.04 |
| O=C1/C(=C/c2ccccc2Br)Oc2ccccc21 | 10.61 |
| Cc1ccc(/C=C2\Oc3ccccc3C2=O)cc1 | >11.59 |
| O=C1/C(=C/c2ccccc2)Oc2ccccc21 [Aurone 6615, (Z)-2-benzylidenebenzofuran-3(2H)-one] | 20.88 |
| O=C1/C(=C/c2cc3ccccc3o2)Oc2ccccc21 | >15.53 |
| O=C1/C(=C/c2ccc(Br)s2)Oc2ccccc21 | 2.28 |
| O=C1/C(=C/c2cnc[nH]2)Oc2ccccc21 | >5.45 |

###

Listed here: items and their measured melting point.

| compoundStructureString | melting point |
| --- | --- |
| CCCCc1ccc(/C=C2\Oc3ccccc3C2=O)cc1 | 80 to 81 °C |
| Cc1ccc2c(c1)C(=O)/C(=C/c1ccc(O)cc1)O2 | 228 to 231 °C |
| O=C1/C(=C/c2ccc(I)cc2)Oc2ccccc21 | 176 to 179 °C |
| O=C1/C(=C/c2ccccc2F)Oc2ccccc21 | 76 to 81 °C |
| COc1cc(OC)c2c(c1)O/C(=C\c1ccc(C#N)cc1)C2=O | 220 to 223 °C |
| O=C1/C(=C/c2cccc(Cl)c2)Oc2ccccc21 | 86 to 89 °C |
| O=C1/C(=C/c2ccc(Br)cc2)Oc2ccc(Br)cc21 | 126 to 130 °C |
| Cc1ccc2c(c1)C(=O)/C(=C/c1ccc(C#N)cc1)O2 | 148 to 152 °C |
| COc1cc(Br)c(/C=C2\Oc3ccccc3C2=O)cc1OC | 144 to 147 °C |
| O=C1/C(=C/c2cc(Br)ccc2Br)Oc2ccccc21 | 181 to 182 °C |
| O=C1/C(=C/c2ccc(C(F)(F)F)cc2)Oc2ccc(Br)cc21 | 120 to 125 °C |
| COC(=O)c1ccc(/C=C2\Oc3ccccc3C2=O)cc1 | 144 to 147 °C |
| COc1ccc(/C=C2\Oc3c(ccc(O)c3O)C2=O)cc1O | 275 to 280 °C |
| CC(=O)Nc1ccc(/C=C2\Oc3ccccc3C2=O)cc1 | 260 to 270 °C |
| O=C1/C(=C/c2ccoc2)Oc2ccccc21 | 111 to 112 °C |
| O=C1/C(=C/c2cc(Br)c(Br)s2)Oc2ccccc21 | 185 to 190 °C |
| O=C1/C(=C/c2cccc3[nH]ccc23)Oc2ccccc21 | 230 to 238 °C |
| O=C1/C(=C/c2ccc(CO)o2)Oc2ccccc21 | 61 to 63 °C |
| O=C1/C(=C/c2ccccc2Br)Oc2ccccc21 | 134 to 140 °C |
| COc1ccc(/C=C2\Oc3ccc(C)cc3C2=O)c(OC)c1OC | 74 to 78 °C |
| COc1cc(OC)c2c(c1)O/C(=C\c1ccc(C)cc1)C2=O | 145 to 148 °C |
| CC(C)(C)c1ccc(/C=C2\Oc3ccccc3C2=O)cc1 | 87 to 90 °C |
| COc1ccc2c(c1)O/C(=C\c1ccc(C#N)cc1)C2=O | 180 to 181 °C |
| COc1ccc2c(c1)O/C(=C\c1ccc(Br)cc1)C2=O | 153 °C |
| O=C1/C(=C/c2cccc(F)c2)Oc2ccccc21 | 111 to 113 °C |
| N#Cc1cccc(/C=C2\Oc3ccccc3C2=O)c1 | 175 to 177 °C |
| O=C1/C(=C/c2cccs2)Oc2c1ccc(O)c2O | 168 to 170 °C |
| O=C1/C(=C/c2cc3ccccc3o2)Oc2ccccc21 | 145 to 150 °C |
| O=C1/C(=C/c2ccccc2Cl)Oc2ccccc21 | 118 to 126 °C |
| Cc1[nH]cnc1/C=C1\Oc2ccccc2C1=O | 180 to 183 °C |
| COc1ccc(/C=C2\Oc3ccccc3C2=O)cc1O | 186 to 187 °C |
| O=C1/C(=C/c2ccsc2)Oc2ccccc21 | 125 to 126 °C |
| Cc1cccc(/C=C2\Oc3ccccc3C2=O)c1 | 74 to 75 °C |
| O=C1/C(=C/c2cccnc2)Oc2ccccc21 | 122 to 123 °C |
| Cc1ccc2c(c1)C(=O)/C(=C/c1ccc(Br)cc1)O2 | 171 to 175 °C |
| O=C1/C(=C/c2ccccn2)Oc2ccccc21 | 119 to 121 °C |
| O=C1/C(=C/c2ccc(O)cc2)Oc2ccccc21 | 258 to 260 °C |
| Cc1ccc(/C=C2\Oc3ccccc3C2=O)cc1 | 75 to 76 °C |
| Cc1ccc(/C=C2\Oc3ccc(Br)cc3C2=O)cc1 | 115 to 120 °C |
| O=C1/C(=C/c2ccc(C(F)(F)F)cc2)Oc2ccccc21 | 98 to 102 °C |
| CCc1ccc(/C=C2\Oc3ccccc3C2=O)cc1 | 71 to 74 °C |

###

tested on: Trypanosoma cruzi Tulahuen cells expressing beta-galactosidase; test: T. cruzi intracellular assay (beta-galactosidase, L6 host cells); settings: Trypanosoma cruzi, TULAHUEN, read-out: IC50 TC-I, Table 3C; intracellular T. cruzi; weighted means of two or more independent trials
Listed here: items and their measured IC50.

| compoundStructureString | resultModifier | IC50 / µM |
| --- | --- | --- |
| CN(C)c1ccc(/C=C2\Oc3ccccc3C2=O)cc1 | = | 5.38 |
| O=C1/C(=C/c2ccc(-c3ccccc3)cc2)Oc2ccccc21 | = | 34.4 |
| CC(=O)Nc1ccc(/C=C2\Oc3ccccc3C2=O)cc1 | > | 50 |
| O=C1/C(=C/c2ccc(/C=C3\Oc4ccccc4C3=O)cc2)Oc2ccccc21 | = | 39.1 |
| O=C1/C(=C/C=C/c2ccccc2)Oc2ccccc21 | = | 14.1 |

###

Listed here: items and their measured Average % Viability (4 h with LPS).
system: PMA-differentiated THP-1 cells; experiment: Alamar Blue cell viability assay, THP-1; assay type: cell-based, human; conditions: THP-1 cells, 20 μM, 4 h with LPS, mean ± SD
parameterMeasured: Average % Viability (4 h with LPS) (%)

| compoundStructureString | parameterMeasured | experimentalResult |
| --- | --- | --- |
| COc1cc(/C=C2\Oc3ccccc3C2=O)ccc1O | Average % Viability (4 h with LPS) | 97.0 |
| COc1ccc(/C=C2\Oc3ccccc3C2=O)cc1O | Average % Viability (4 h with LPS) | 101.8 |
| COc1cccc(/C=C2\Oc3ccccc3C2=O)c1O | Average % Viability (4 h with LPS) | 101.3 |
| O=C1/C(=C/c2ccccc2O)Oc2ccccc21 | Average % Viability (4 h with LPS) | 99.4 |
| O=C1/C(=C/c2ccc(CO)o2)Oc2ccccc21 | Average % Viability (4 h with LPS) | 96.0 |
| O=C1/C(=C/c2cccc(O)c2)Oc2ccccc21 | Average % Viability (4 h with LPS) | 94.6 |
| O=C1/C(=C/c2ccc(O)cc2)Oc2ccccc21 | Average % Viability (4 h with LPS) | 99.8 |

###

system: Leishmania amazonensis promastigotes expressing beta-lactamase; assay: microbe, parasite or virus in culture; assay type: cell-based; settings: Leishmania amazonensis, read-out: IC50 L. amaz.
Listed here: items and their measured log10 IC50.
parameterMeasured: log10 IC50 (log10 of the value in µM)

| molecule | targetSystem | experimentalResult |
| --- | --- | --- |
| O=C1/C(=C/c2ccc(Br)cc2)Oc2cc(O)ccc21 | Leishmania amazonensis promastigotes expressing beta-lactamase | 1.59 |
| O=C1/C(=C/c2ccccc2F)Oc2ccccc21 | Leishmania amazonensis promastigotes expressing beta-lactamase | 1.02 |
| O=C1/C(=C/c2cc(Br)ccc2Br)Oc2ccccc21 | Leishmania amazonensis promastigotes expressing beta-lactamase | 1.20 |
| O=C1/C(=C/c2ccc(C(F)(F)F)cc2)Oc2ccc(Br)cc21 | Leishmania amazonensis promastigotes expressing beta-lactamase | 0.86 |
| Cc1ccc2c(c1)C(=O)/C(=C/c1ccc(O)cc1)O2 | Leishmania amazonensis promastigotes expressing beta-lactamase | 0.55 |
| O=C1/C(=C/c2ccccc2)Oc2ccccc21 [Aurone 6615, (Z)-2-benzylidenebenzofuran-3(2H)-one] | Leishmania amazonensis promastigotes expressing beta-lactamase | 0.62 |
| O=C1/C(=C/c2c[nH]c3ccccc23)Oc2ccccc21 | Leishmania amazonensis promastigotes expressing beta-lactamase | 0.22 |
| O=C1/C(=C/c2ccc(Cl)cc2)Oc2ccccc21 | Leishmania amazonensis promastigotes expressing beta-lactamase | 1.62 |
| CN(C)c1ccc(/C=C2\Oc3ccccc3C2=O)cc1 | Leishmania amazonensis promastigotes expressing beta-lactamase | 0.22 |
| COc1ccc(/C=C2\Oc3ccccc3C2=O)cc1OC | Leishmania amazonensis promastigotes expressing beta-lactamase | 0.00 |
| O=C1/C(=C/c2cccc3[nH]ccc23)Oc2ccccc21 | Leishmania amazonensis promastigotes expressing beta-lactamase | 0.05 |
| O=C1/C(=C/c2ccoc2)Oc2ccccc21 | Leishmania amazonensis promastigotes expressing beta-lactamase | 1.63 |
| CCc1ccc(/C=C2\Oc3ccccc3C2=O)cc1 | Leishmania amazonensis promastigotes expressing beta-lactamase | 0.81 |
| O=C1/C(=C/c2cccc(O)c2)Oc2ccccc21 | Leishmania amazonensis promastigotes expressing beta-lactamase | 0.18 |
| COc1ccc(/C=C2\Oc3ccccc3C2=O)cc1O | Leishmania amazonensis promastigotes expressing beta-lactamase | 0.16 |
| COc1ccc(/C=C2\Oc3ccccc3C2=O)c(OC)c1OC | Leishmania amazonensis promastigotes expressing beta-lactamase | 1.12 |
| O=C1/C(=C/c2cccs2)Oc2cc(O)ccc21 | Leishmania amazonensis promastigotes expressing beta-lactamase | 1.29 |
| O=C1/C(=C/c2cccnc2)Oc2ccccc21 | Leishmania amazonensis promastigotes expressing beta-lactamase | 0.87 |
